# Tested on: Wolbachia pipientis
# measurement.description: Anti-Wolbachia Cell-Based Screen
# Assay type: functional
# Parameters: scale not given: in the data most compounds retested in dose-response had high values
# measurement.context: 5 µM
Out of some 48,000 compounds screened, about 13,000 (27%) showed an effect of 50% or more. Some of the results follow.
test.readout: Percent Effect (%)

INSERT INTO measurements (compound, test_readout, data_value) VALUES
  ('CCC(C(=O)NCc1ccncc1)N(c1cccc(C)c1)S(C)(=O)=O (stereo not given)', 'Percent Effect', -0.3468),
  ('CN1CCN(C(=O)CCCc2ccccn2)c2ccc(F)cc21', 'Percent Effect', -53.44),
  ('O=C(Nc1cccc(-c2cscn2)c1)N1CCC2(CC1)CC(O)CO2 (stereo not given)', 'Percent Effect', -8.053),
  ('Cc1cc(NC(=O)C2CCCN(C(=O)NCC(C)C)C2)ccn1 (stereo not given)', 'Percent Effect', 89.55),
  ('Cc1ccc(Oc2ncccc2CNC2CCOCC2)cn1', 'Percent Effect', -4.901),
  ('CCOc1ccnc(N2CCCN(c3nc(C4CC4)ns3)CC2)n1', 'Percent Effect', -0.1352),
  ('Cc1ccc(-c2nc(C(=O)N(C)CC(=O)N3CCCC3)cs2)c(C)c1', 'Percent Effect', 2.536),
  ('CCNC(=O)N1CCCC(C(=O)c2cccc(OC(C)C)c2)C1 (stereo not given)', 'Percent Effect', 17.22),
  ('CC(C)c1nn(C)c(Cl)c1CNC1CCOc2ccccc21.Cl (stereo not given)', 'Percent Effect', -8.066),
  ('CCNC(=O)CN(Cc1ccoc1)C1CCCCC1', 'Percent Effect', -9.878),
  ('COc1cccc([C@H]2CN(C(=O)c3noc4c3CCCC4)C[C@@H]2N)c1', 'Percent Effect', -1.914),
  ('COc1cccc2c1OCC(C(=O)NCc1c(C)noc1C)C2 (stereo not given)', 'Percent Effect', -13.16),
  ('NC(=O)N1CCCC(C(=O)Nc2cccc(Cl)c2)C1 (stereo not given)', 'Percent Effect', 3.636),
  ('CN(C)C(=O)C1CCC2(CCN(C(=O)Nc3cccc(F)c3)CC2)O1 (stereo not given)', 'Percent Effect', 98.46),
  ('COc1cccc(-c2cnnc(N(C)CCC3CCCCO3)n2)c1 (stereo not given)', 'Percent Effect', -7.888),
  ('O=S(=O)(C1CC1)N1CCC2(CN(c3ncccn3)C2)C1', 'Percent Effect', -12.56),
  ('Cc1ccc(NC(=O)c2nc3c(s2)CCCN3C(=O)C2CC2)cn1.O=C(O)C(F)(F)F', 'Percent Effect', 7.338),
  ('O=C(Nc1cccc(F)c1)N1CCN(Cc2noc(C3CC3)n2)CC1', 'Percent Effect', -10.54),
  ('Cc1nc(CCNc2ccc(-c3nc(C)c(C)c(=O)[nH]3)cn2)cs1', 'Percent Effect', 1.722),
  ('Cc1c(C2CC2)n[nH]c1NC(=O)C1CCCN(C(=O)NCC(C)C)C1 (stereo not given)', 'Percent Effect', 117.7),
  ('NC(=O)NC(=O)CN1CCN(CC2CC2)c2ccccc21', 'Percent Effect', -3.453),
  ('COCCN(C)C(=O)c1nc2c(s1)CCCN2C(=O)C1CC1', 'Percent Effect', 11.31),
  ('COc1cc(O)cc2c1C(=O)CC(c1ccc(O)cc1)O2 (stereo not given)', 'Percent Effect', -2.59),
  ('N#Cc1ccc(CN2C[C@@H](F)[C@@H](OCc3nc4cnccc4[nH]3)C2)cc1', 'Percent Effect', -2.578),
  ('O=C(NCc1cccnc1)c1nc2c(s1)CCCN2C(=O)C1CC1.O=C(O)C(F)(F)F', 'Percent Effect', 105.9),
  ('Cc1cc(C(=O)N2CCC3(CC2)CC(c2cccnc2)C(=O)N3C)no1.O=C(O)C(F)(F)F (stereo not given)', 'Percent Effect', 1.086),
  ('O=C(NCCc1cccc(F)c1)c1nc2c(s1)CCCN2C(=O)C1CC1', 'Percent Effect', 109.4),
  ('CN1CCCc2sc(C(=O)NCc3cccnc3)nc21', 'Percent Effect', -7.154),
  ('CC(C)OC(=O)N1C[C@H]2CC[C@@H]1CN(C(=O)c1ccccc1)C2', 'Percent Effect', -6.398),
  ('Cc1n[nH]c(C)c1Sc1ccccc1NC(=O)N1CCCC(C(N)=O)C1 (stereo not given)', 'Percent Effect', -0.33),
  ('CN1CCN(C(=O)CCc2cccnc2)c2ccc(F)cc21', 'Percent Effect', -6.701),
  ('Cc1cccc(CN2CCC3(CC2)CC(c2cccnc2)C(=O)N3C)n1.O=C(O)C(F)(F)F.O=C(O)C(F)(F)F (stereo not given)', 'Percent Effect', 108),
  ('CN(C)c1ncnc2c1CCN(C(=O)c1sccc1S(N)(=O)=O)C2', 'Percent Effect', -19.94),
  ('Cc1n[nH]c(C)c1CCNC(=O)C1CCCN(CC(N)=O)C1 (stereo not given)', 'Percent Effect', -16.53),
  ('CN1CCN(C(=O)c2nc3c(s2)CCCN3C(=O)C2CC2)CC1.O=C(O)C(F)(F)F', 'Percent Effect', -2.349),
  ('CN(Cc1ccc(F)cc1C#N)CC(F)(F)F', 'Percent Effect', -4.053),
  ('CN(C)CCNC(=O)c1nc2c(s1)CCCN2C(=O)C1CC1.O=C(O)C(F)(F)F', 'Percent Effect', 97.24),
  ('COc1ccc(Cl)cc1CS(=O)(=O)Cc1noc(C)n1', 'Percent Effect', 18.18),
  ('CC(=O)N1CCN(Cc2csc(-c3cnn(C)c3)n2)CC1', 'Percent Effect', -2.698),
  ('Cc1nsc(N2CCN(C(=O)Nc3cccc(F)c3)CC2)n1', 'Percent Effect', -8.293),
  ('Cc1nnc(SCCC(=O)N(C)Cc2c(F)cccc2Cl)[nH]1', 'Percent Effect', 13.01),
  ('CS(=O)(=O)NC[C@H]1Cn2c(-c3ccc(F)cc3)cnc2CO1', 'Percent Effect', -20.98),
  ('Cc1cc(C(N)=O)ccc1NC(=O)c1nc(N2CCCC2)ncc1Cl', 'Percent Effect', -12.29),
  ('CCCNC(=O)Nc1cc2c(cc1SC)OCCO2', 'Percent Effect', 21.87),
  ('O=C(NCCc1cccnc1)c1nc2c(s1)CCCN2C(=O)C1CC1.O=C(O)C(F)(F)F', 'Percent Effect', 99.18);

====

Form field: Percent Effect (one value per entry).
# Tested on: Wolbachia pipientis
# measurement.description: Anti-Wolbachia Cell-Based Screen
# Assay type: functional
# Parameters: scale not given: in the data most compounds retested in dose-response had high values
# measurement.context: 5 µM
Out of some 48,000 compounds screened, about 13,000 (27%) showed an effect of 50% or more. This is one part of the list.
test.readout: Percent Effect

INSERT INTO measurements (compound, study_target, data_value) VALUES
  ('CC(C)c1nn(C)c(N(C)C)c1CNC1CCC(O)CC1 (centres undefined)', 'Wolbachia pipientis', '13.16%'),
  ('Cc1nc(CN2CCOCC3(CCN(c4cccnc4)CC3)C2)cs1.O=C(O)C(F)(F)F.O=C(O)C(F)(F)F', 'Wolbachia pipientis', '4.008%'),
  ('CN1CCc2nc(C3CCCN(S(=O)(=O)N4CCCC4)C3)ncc2C1 (centres undefined)', 'Wolbachia pipientis', '92.03%'),
  ('CCc1nnc(CN2CCN(C(=O)c3ccccn3)CC2)o1', 'Wolbachia pipientis', '-6.012%'),
  ('Brc1cnc(NCCCOC2CCOCC2)nc1', 'Wolbachia pipientis', '-7.222%'),
  ('COC(=O)c1ccc2nc(CO[C@H]3CN(CC4CC4)C[C@H]3F)[nH]c2c1', 'Wolbachia pipientis', '5.552%'),
  ('O=C(Cc1ccsc1)N1Cc2nc(CN3CCCCC3)oc2C1.O=C(O)C(F)(F)F', 'Wolbachia pipientis', '93.12%'),
  ('COc1cccc(NC(=O)N(CCO)C2CCc3ccccc32)c1 (centres undefined)', 'Wolbachia pipientis', '-4.61%'),
  ('O=C(O)C(F)(F)F.O=S(=O)(c1cccs1)N1CCCn2nnc(CN3CCCCC3)c2C1', 'Wolbachia pipientis', '-14.53%'),
  ('Cc1ccc(SCCN(C)C(=O)c2cn(CCN)nn2)cc1', 'Wolbachia pipientis', '1.127%'),
  ('Cc1ccc(CN2CCOC3(COCCN(Cc4ccncc4)C3)C2)o1.O=C(O)C(F)(F)F.O=C(O)C(F)(F)F.O=C(O)C(F)(F)F (centres undefined)', 'Wolbachia pipientis', '-16.88%'),
  ('O=C(O)C(F)(F)F.O=C(c1ccc2[nH]ccc2c1)N1Cc2nc(CN3CCCCC3)oc2C1', 'Wolbachia pipientis', '-9.773%'),
  ('CN(CCn1ccc2ccccc21)C(=O)Cc1n[nH]c(=O)[nH]1', 'Wolbachia pipientis', '0.08952%'),
  ('COc1coc(CN2CCCC(CCc3ccccc3C)C2)cc1=O (centres undefined)', 'Wolbachia pipientis', '-0.7566%'),
  ('O=C(CCC1CCCC1)N1CCC(c2ncc3c(n2)CCNC3)CC1', 'Wolbachia pipientis', '-4.401%'),
  ('N#Cc1cccc(Cl)c1NCCc1n[nH]c(=O)[nH]1', 'Wolbachia pipientis', '-15.54%'),
  ('CC(Cc1cn(CCc2n[nH]c(=O)[nH]2)nn1)c1ccccc1 (centres undefined)', 'Wolbachia pipientis', '124.9%'),
  ('COc1ccc(-c2nc(CNCCn3cccn3)cs2)cc1', 'Wolbachia pipientis', '30.25%'),
  ('COc1c(CNC2CCN(C(C)(C)C)CC2)c(C(C)C)nn1C', 'Wolbachia pipientis', '2.143%'),
  ('Cc1cc(CNC2(CO)CCOCC2)ccc1Br', 'Wolbachia pipientis', '-0.9175%'),
  ('CN1CCC(c2ncc3c(n2)CCN(C(=O)CC2C=CCC2)C3)CC1 (centres undefined)', 'Wolbachia pipientis', '-2.125%'),
  ('Cc1nc(CN2CCC3(CCCN(Cc4cccnc4)C3)C2=O)cs1.O=C(O)C(F)(F)F.O=C(O)C(F)(F)F.O=C(O)C(F)(F)F (centres undefined)', 'Wolbachia pipientis', '115.5%'),
  ('Cc1cc(=O)n2ncnc2n1CC(O)COCc1ccccc1Cl (centres undefined)', 'Wolbachia pipientis', '-44.43%'),
  ('CN(C)S(=O)(=O)N1CC[C@]2(C[C@@H](OCC3CC3)CO2)C1', 'Wolbachia pipientis', '9.447%'),
  ('Cc1ncnc2c1CCN(Cc1cccs1)CC2.O=C(O)C(F)(F)F', 'Wolbachia pipientis', '-21.74%'),
  ('CSCC(CCO)NC(=O)Nc1cc(C)ccc1C (centres undefined)', 'Wolbachia pipientis', '-5.082%'),
  ('O=C(O)C(F)(F)F.O=C(O)C(F)(F)F.O=C(c1ccncc1F)N1Cc2nc(CN3CCCCC3)oc2C1', 'Wolbachia pipientis', '-18.26%'),
  ('CS(=O)(=O)N1CCOCC12CCN(Cc1ccc(F)cc1)CC2.O=C(O)C(F)(F)F', 'Wolbachia pipientis', '90.38%'),
  ('O=C(O)C(F)(F)F.O=S(=O)(c1cccs1)N1CC[C@H]2[C@H]1CCN2CC1CC1', 'Wolbachia pipientis', '-12.79%'),
  ('C=C(C)COc1cccc(CNCCc2nc(N)cc(O)n2)c1', 'Wolbachia pipientis', '6.733%'),
  ('CN(CCn1ccc2ccccc21)C(=O)Cc1nnn[nH]1', 'Wolbachia pipientis', '-2.882%'),
  ('CCC(=O)N1CCCC(c2ncc3c(n2)CCN(C)C3)C1 (centres undefined)', 'Wolbachia pipientis', '111.8%'),
  ('CN(C)C(=O)CN1C[C@@H]2CC[C@H](C1)N(Cc1c(F)cccc1Cl)C2', 'Wolbachia pipientis', '-24.65%'),
  ('CN1CCc2nc(C3CCCN(C(=O)CC(C)(C)C)C3)ncc2C1 (centres undefined)', 'Wolbachia pipientis', '119.8%'),
  ('CC(C)CC(C)NCc1cccnc1N1CCOCC1 (centres undefined)', 'Wolbachia pipientis', '1.673%'),
  ('COc1c(CNC2CCN(C(=O)C3CC3)CC2)c(C(C)C)nn1C', 'Wolbachia pipientis', '2.531%'),
  ('COc1c(CNC2CCC(O)CC2)c(C(C)C)nn1C (centres undefined)', 'Wolbachia pipientis', '106.7%'),
  ('COc1c(CNC2CCN(C(=O)C(C)C)CC2)c(C(C)C)nn1C', 'Wolbachia pipientis', '121.5%'),
  ('O=C(O)C(F)(F)F.O=C(O)C(F)(F)F.c1csc(CN2Cc3nc(CN4CCCC4)oc3C2)c1', 'Wolbachia pipientis', '109.9%'),
  ('CN1CCCN(C[C@@H]2CN(C(=O)CCc3cn[nH]c3)C[C@@H]2CO)CC1', 'Wolbachia pipientis', '1.74%'),
  ('CC(C)n1ccnc1C1CCN(C(=O)c2ccccn2)CC1', 'Wolbachia pipientis', '-22.55%'),
  ('CC(Cc1cn(CCc2nnn[nH]2)nn1)c1ccccc1 (centres undefined)', 'Wolbachia pipientis', '103.4%'),
  ('O=C(Cc1cccs1)N1Cc2nc(CN3CCCC3)oc2C1', 'Wolbachia pipientis', '101.2%'),
  ('O=C(NCc1cccs1)c1nc2c(o1)CN(c1ncccn1)C2', 'Wolbachia pipientis', '0.5771%');
